test-details: Ratio of Kapp for synthetic poly(dA-dT)]2 oligonucleotide to Kapp for synthetic poly(dG-dC)]2 oligonucleotide
Threshold check on Ratio: at or above 2 gives Fulfilled, strictly below gives Not fulfilled.

1. CCN(CC)CCCNc1ccc(NCCCN(C)CCCNc2ccc(NCCCN(CC)CC)c3c2C(=O)c2cnccc2C3=O)c2c1C(=O)c1ccncc1C2=O Not fulfilled
2. CCN(CC)CCNc1ccc(NCCCN(C)CCCNc2ccc(NCCN(CC)CC)c3c2C(=O)c2cnccc2C3=O)c2c1C(=O)c1ccncc1C2=O Fulfilled
3. CN(C)CCCNc1ccc(NCCCN(C)CCCNc2ccc(NCCCN(C)C)c3c2C(=O)c2cnccc2C3=O)c2c1C(=O)c1ccncc1C2=O Fulfilled
4. CN(CCCNc1ccc(NCCN2CCCC2)c2c1C(=O)c1cnccc1C2=O)CCCNc1ccc(NCCN2CCCC2)c2c1C(=O)c1cnccc1C2=O Fulfilled
5. CN(C)CCNc1ccc(NCCCN(C)CCCNc2ccc(NCCN(C)C)c3c2C(=O)c2ccncc2C3=O)c2c1C(=O)c1cnccc1C2=O Fulfilled
6. CCN(CC)CCNc1ccc(NCCCN(C)CCCNc2ccc(NCCN(CC)CC)c3c2C(=O)c2ccncc2C3=O)c2c1C(=O)c1cnccc1C2=O Fulfilled
7. CN(C)CCNc1ccc(NCCCN(C)CCCNc2ccc(NCCN(C)C)c3c2C(=O)c2cnccc2C3=O)c2c1C(=O)c1ccncc1C2=O Fulfilled
8. CN(C)CCCNc1ccc(NCCCN(C)CCCNc2ccc(NCCCN(C)C)c3c2C(=O)c2ccncc2C3=O)c2c1C(=O)c1cnccc1C2=O Not fulfilled

Cited source: ChEMBL document CHEMBL1141566
